- Test Description: A qHTS for Small Molecule Inhibitors of Shiga Toxin; further: 0% is about no effect
- Measurement Parameters: Vero cells, Shiga toxin protein synthesis inhibition reporter; at 38.7 µM, stronger effect = higher value
Among all 290,000 compounds or so, about 27,000 (9.3%) were called active. Many of the other results were omitted from the sample, so actives are more common in it than they were.
Outcome Measure: inhibition (%)
Form entry: value (%) — number only.

Molecule	Outcome Measure	Observed Value
c1ccc(Nc2nc(-c3ccncc3)cs2)nc1	inhibition	75.1
COC(=O)CSc1nccc(-c2cccs2)n1	inhibition	46.2

INPUT: Look up inhibition: "COc1cccc(/C=C/c2ccc3ccccc3n2)c1OC(C)=O"
OUTPUT: 42.7

INPUT: And the next one, "Cc1ccc(NC(=O)c2ccc(CSc3ncnc4nc[nH]c34)cc2)c(C)c1" ?
OUTPUT: 39

INPUT: And the next one, "c1cnc(Nc2nc(-c3ccc4ccccc4c3)cs2)nc1" ?
OUTPUT: 154

INPUT: And the next one, Cc1cc(S(=O)(=O)Nc2ccc(C(=O)NCC(c3ccco3)N3CCCC3)cc2)ccc1F (stereo unspecified) ?
OUTPUT: -11.6

INPUT: And the next one, CC(NC(=O)Cn1cc(C(F)(F)F)cc(Cl)c1=O)c1ccccc1 (stereo unspecified) ?
OUTPUT: -1.42

INPUT: And the next one, O=C(NC(Cc1ccc(O)cc1)C(=O)O)/C(=C/c1ccccc1)NC(=O)c1ccccc1 (stereo unspecified) ?
OUTPUT: 8.2

INPUT: And the next one, "COC(=O)c1cc(-c2cccs2)nc2ccccc12" ?
OUTPUT: -1.63

INPUT: And the next one, "CN(C)S(=O)(=O)c1ccc(N2CCCC2)c(C(=O)Nc2cccc(F)c2)c1" ?
OUTPUT: -10.4

INPUT: And the next one, "CCOc1ccc(N(CC)S(=O)(=O)c2cccc3nsnc23)cc1" ?
OUTPUT: -2.2

###

- Test Description: A qHTS for Small Molecule Inhibitors of Shiga Toxin; further: 0% is about no effect
- Measurement Parameters: Vero cells, Shiga toxin protein synthesis inhibition reporter; at 38.7 µM, stronger effect = higher value
Among all 290,000 compounds or so, about 27,000 (9.3%) were called active. Shown is part of a subset that was picked to be rich in actives.
Outcome Measure: inhibition (%)
Form entry: value (%) — number only.

Record excerpt, results attached:
Compound	inhibition [%]
O=C(CCc1nnc2ccc(NCc3ccccc3Cl)nn12)NCC1CCN(C2CCCC2)C1 (stereo unspecified)	8.94
CCn1nccc1C(=O)Nc1ccc(Cl)c(Cl)c1	81
COc1ccccc1Oc1ccc(N2CC(C(=O)OCC(=O)c3ccc(F)cc3)CC2=O)cc1 (stereo unspecified)	7.33
C/C(=N\NC(=O)Cc1ccc(F)cc1)c1ccc(F)cc1	11.6
O=C(O)CC/C(=N\NC(=O)c1ccc(F)cc1)c1ccc(Br)cc1	57.9
COc1ccc(N=Nc2ccc(O)c(P(=O)(c3ccccc3)c3ccccc3)c2)cc1	-5.57
Cc1cc(N=Nc2ccc3ccccc3c2)ccc1O	107
O=C(CSc1ccc(-c2cccs2)nn1)Nc1ccccc1F	32.3

INPUT: Look up inhibition: "O=C(NCCCn1ccnc1)/C(=C\c1ccccc1F)NC(=O)c1ccccc1"
OUTPUT: -7.27

INPUT: And the next one, "CCn1nccc1C(=O)Nc1ccc(S(=O)(=O)NC23CC4CC(CC(C4)C2)C3)cc1" ?
OUTPUT: -9.86

INPUT: And the next one, "Cc1cccc(C)c1NC(=O)COC(=O)c1ccccc1O" ?
OUTPUT: -4.8
